Each entry below lists one item and its recorded Stability Index value.
system: T1, recombinant human Tau monomer, 2N4R isoform (amino acids 2-441) (human, UniProt P10636-8 2-441)
T1 construct: range 2-441; N-terminal His-tag removed with TEV protease; also called monomeric Tau
T1 sequence (P10636 other isoform, or with tags, fused parts or gaps limits assumed): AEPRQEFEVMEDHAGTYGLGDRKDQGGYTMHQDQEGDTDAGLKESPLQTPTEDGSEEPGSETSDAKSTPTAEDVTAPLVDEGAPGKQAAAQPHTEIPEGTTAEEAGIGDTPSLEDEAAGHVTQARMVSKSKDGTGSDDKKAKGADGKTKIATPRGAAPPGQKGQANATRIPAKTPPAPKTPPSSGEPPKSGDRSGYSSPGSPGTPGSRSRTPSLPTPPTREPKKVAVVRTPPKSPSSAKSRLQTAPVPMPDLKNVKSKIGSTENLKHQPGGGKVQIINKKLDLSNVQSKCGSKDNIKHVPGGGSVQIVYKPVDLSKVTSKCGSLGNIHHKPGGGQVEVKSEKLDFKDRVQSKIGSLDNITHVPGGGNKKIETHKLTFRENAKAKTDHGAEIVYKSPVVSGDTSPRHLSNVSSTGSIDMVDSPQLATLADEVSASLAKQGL
method summary: SPR; Normalized Rmax post-stress (2 weeks 40 C) / pre-stress

Illustrative cases are given below, each with its answer.
binder	endpoint label	experimental value
hu37D3-H9.v31.4 (antibody, V domains shown) VH: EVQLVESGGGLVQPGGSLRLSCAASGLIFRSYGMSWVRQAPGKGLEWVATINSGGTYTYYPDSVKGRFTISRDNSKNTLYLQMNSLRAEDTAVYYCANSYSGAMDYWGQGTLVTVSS VL: DDVLTQTPLSLPVTPGQPASISCRSSQSIVHSNAPTYFEWYLQKPGQSPQLLIYKVSNRFSGVPDRFSGSGSGTDFTLKISRVEAEDVGVYYCFQGSLVPWTFGQGTKVEIK	Stability Index	533%
hu37D3-H9.v30.4 (antibody, V domains shown) VH: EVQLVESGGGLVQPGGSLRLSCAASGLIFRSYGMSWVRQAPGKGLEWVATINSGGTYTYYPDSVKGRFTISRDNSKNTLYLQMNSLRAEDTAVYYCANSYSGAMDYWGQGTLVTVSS VL: DDVLTQTPLSLPVTPGQPASISCRSSQSIVHSLGNTYFEWYLQKPGQSPQLLIYKVSNRFSGVPDRFSGSGSGTDFTLKISRVEAEDVGVYYCFQGSLVPWTFGQGTKVEIK	Stability Index	87%

response.value for hu37D3-H9.v30.7 (antibody, V domains shown) VH: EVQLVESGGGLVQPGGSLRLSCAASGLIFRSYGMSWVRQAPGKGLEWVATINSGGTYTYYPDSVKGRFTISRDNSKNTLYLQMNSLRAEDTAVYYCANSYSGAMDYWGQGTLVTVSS VL: DDVLTQTPLSLPVTPGQPASISCRSSQSIVHSFGNTYFEWYLQKPGQSPQLLIYKVSNRFSGVPDRFSGSGSGTDFTLKISRVEAEDVGVYYCFQGSLVPWTFGQGTKVEIK (field: Stability Index) = 93%

Values from patent US20190367592A1
